Ref: the supplement of paper PMC6757056

B1: library; a variant is named by its letters at N, in order (parent)
chain: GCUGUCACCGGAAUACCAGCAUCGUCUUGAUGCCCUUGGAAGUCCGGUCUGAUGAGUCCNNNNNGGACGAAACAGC

# Variants of: B1
# Method summary: normalized RNA/DNA level without ligand (relative to sTRSVctl = 100) (log10 (% of sTRSVctl)); higher = less ribozyme self-cleavage, higher mRNA level
# Recorded conditions: HEK293T, reporter: mCherry (pCS4076), ligand present: no
Reported normalized RNA/DNA level without ligand (log10) values follow for various variants
Attribute measured: normalized RNA/DNA level without ligand (log10)

GCUGUCACCGGAAUACCAGCAUCGUCUUGAUGCCCUUGGAAGUCCGGUCUGAUGAGUCCUUGAAGGACGAAACAGC [UUGAA]	1.29
GCUGUCACCGGAAUACCAGCAUCGUCUUGAUGCCCUUGGAAGUCCGGUCUGAUGAGUCCAUGGUGGACGAAACAGC [AUGGU]	1.78
GCUGUCACCGGAAUACCAGCAUCGUCUUGAUGCCCUUGGAAGUCCGGUCUGAUGAGUCCUCUAAGGACGAAACAGC [UCUAA]	1.68
GCUGUCACCGGAAUACCAGCAUCGUCUUGAUGCCCUUGGAAGUCCGGUCUGAUGAGUCCCCUUAGGACGAAACAGC [CCUUA]	1.73
GCUGUCACCGGAAUACCAGCAUCGUCUUGAUGCCCUUGGAAGUCCGGUCUGAUGAGUCCCCCAAGGACGAAACAGC [CCCAA]	1.82
GCUGUCACCGGAAUACCAGCAUCGUCUUGAUGCCCUUGGAAGUCCGGUCUGAUGAGUCCAGCGAGGACGAAACAGC [AGCGA]	1.68
GCUGUCACCGGAAUACCAGCAUCGUCUUGAUGCCCUUGGAAGUCCGGUCUGAUGAGUCCUAUGUGGACGAAACAGC [UAUGU]	1.97
GCUGUCACCGGAAUACCAGCAUCGUCUUGAUGCCCUUGGAAGUCCGGUCUGAUGAGUCCUUGGAGGACGAAACAGC [UUGGA]	1.59
GCUGUCACCGGAAUACCAGCAUCGUCUUGAUGCCCUUGGAAGUCCGGUCUGAUGAGUCCCUCUCGGACGAAACAGC [CUCUC]	1.95
GCUGUCACCGGAAUACCAGCAUCGUCUUGAUGCCCUUGGAAGUCCGGUCUGAUGAGUCCUGCACGGACGAAACAGC [UGCAC]	2.01
